- TARGET_OR_SYSTEM: UniProtKB P42681
- Sequence (P42681 whole entry): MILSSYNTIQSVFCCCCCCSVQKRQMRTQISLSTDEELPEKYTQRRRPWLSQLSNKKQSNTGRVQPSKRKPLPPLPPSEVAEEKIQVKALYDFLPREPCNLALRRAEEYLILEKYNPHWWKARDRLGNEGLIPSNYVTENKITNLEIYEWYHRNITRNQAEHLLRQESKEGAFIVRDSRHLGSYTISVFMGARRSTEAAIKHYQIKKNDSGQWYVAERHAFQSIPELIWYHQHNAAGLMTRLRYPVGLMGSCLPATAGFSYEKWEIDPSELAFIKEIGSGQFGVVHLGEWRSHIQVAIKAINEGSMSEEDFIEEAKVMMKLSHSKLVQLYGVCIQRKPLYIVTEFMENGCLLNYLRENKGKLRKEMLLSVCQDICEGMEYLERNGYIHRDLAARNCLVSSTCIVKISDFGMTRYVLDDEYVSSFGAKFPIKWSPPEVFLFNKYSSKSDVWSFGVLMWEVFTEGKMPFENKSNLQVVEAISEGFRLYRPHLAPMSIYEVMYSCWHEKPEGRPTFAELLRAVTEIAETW
- EXPERIMENTAL_PROTOCOL: Inhibition of human full length GST-tagged TXK expressed in baculovirus at 1 uM by Z'-LYTE assay
PROPERTY_LABEL: inhibition at 1 µM (%)

Here are 3 molecules together with their reported answers.
Cc1c(-c2c(F)cc(C(N)=O)c3[nH]c4c(c23)CC[C@@H](C(C)(C)O)C4)cccc1-n1c(=O)c2cccc(F)c2n(C)c1=O	81
C=CC(=O)N1CCC(CNc2ncnc(N)c2-c2ccc(Oc3ccccc3)cc2)CC1	30
C=CC(=O)N1CCC[C@@H](n2nc(-c3ccc(Oc4ccccc4)cc3)c3c(N)ncnc32)C1	93

I: C=CC(=O)Nc1cccc(Nc2nc(Nc3ccc(OCCOC)cc3)ncc2F)c1
II: CC#CC(=O)N1CCC[C@H]1c1nc(-c2ccc(C(=O)Nc3ccccn3)cc2)c2c(N)nccn12
III: C[C@H]1CN(C2COC2)CCN1c1ccc(Nc2cc(-c3ccnc(N4CCn5c(cc6c5CC(C)(C)C6)C4=O)c3CO)cn(C)c2=O)nc1
IV: CC#CC(=O)N1CC[C@@H](n2c(=O)n(-c3ccc(Oc4ccccc4)cc3)c3c(N)ncnc32)C1
Qu. Please give the order of these molecules when sorted by inhibition at 1 µM, largest value leading. Reply with the item labels sorted in the order that was asked for.
Ans. I, IV, II, III
